log10(Ki), Adenosine receptor A2a (Homo sapiens, UniProt P29274), per-entry values.
Measurement Type: log10(Ki) (log10 of the value in nM)

Chemical Smiles | Result Number
COc1ccc(CCSc2cc3nc(-c4ccco4)nn3c(N)n2)cc1 | 0.20
COCCOc1ccc(N2CCN(CCN(CC3CC3)c3cc4nc(-c5ccco5)nn4c(N)n3)CC2)cc1 | -0.10
COCCOc1ccc(N2CCN(CCN(CCOC)c3cc4nc(-c5ccco5)nn4c(N)n3)CC2)cc1 | -0.15
CN(CCN1CCN(c2ccc(F)cc2F)CC1)c1cc2nc(-c3cnco3)nn2c(N)n1 | -0.52
COc1ccc(CN(C)c2cc3nc(-c4ccco4)nn3c(N)n2)cc1 | 1.66
COc1ccc(CCCc2cc3nc(-c4ccco4)nn3c(N)n2)cc1 | 1.06
Nc1nc(N(CCN2CCN(c3ccc(F)cc3F)CC2)CC2CC2)cc2nc(-c3ccco3)nn12 | -0.52
CN(CCN1CCN(c2ccc(F)cc2F)CC1)c1cc2nc(-c3cccc(C#N)c3)nn2c(N)n1 | 0.26
COCCN(CCN1CCN(c2ccc(F)cc2F)CC1)c1cc2nc(-c3ccco3)nn2c(N)n1 | -0.30
CN(CCN1CCN(c2ccc(F)cc2F)CC1)c1cc2nc(-c3ccco3)nn2c(N)n1 | 0.00
COCCOc1ccc(N2CCN(CCOc3cc4nc(-c5ccco5)nn4c(N)n3)CC2)cc1 | 0.45
CCN(CCN1CCN(c2ccc(OCCOC)cc2)CC1)c1cc2nc(-c3ccco3)nn2c(N)n1 | 0.18
COc1ccc(CCOc2cc3nc(-c4ccco4)nn3c(N)n2)cc1 | 0.45
COc1ccc(CCCN(C)c2cc3nc(-c4ccco4)nn3c(N)n2)cc1 | 0.76
COCCOc1ccc(N2CCN(CCN(C)c3cc4nc(-c5cccc(C#N)c5)nn4c(N)n3)CC2)cc1 | -0.15

----------
# Test system: Rattus norvegicus
# Experiment: Inhibition of haloperidol-induced catalepsy in rat at 1 mg/kg, po after 4 hrs
# Assay type: functional

Chemical Smiles | Unit Label | inhibition in vivo at 1 mg/kg
CN(CCN1CCN(c2ccc(F)cc2F)CC1)c1cc2nc(-c3ccco3)nn2c(N)n1 | % | 30
COCCOc1ccc(N2CCN(CCSc3cc4nc(-c5ccco5)nn4c(N)n3)CC2)cc1 | % | 15
COCCOc1ccc(N2CCN(CCN(C)c3cc4nc(-c5ccco5)nn4c(N)n3)CC2)cc1 | % | 0
COCCOc1ccc(N2CCN(CCN(CCOC)c3cc4nc(-c5ccco5)nn4c(N)n3)CC2)cc1 | % | 6
COCCOc1ccc(N2CCN(CCN(CC3CC3)c3cc4nc(-c5ccco5)nn4c(N)n3)CC2)cc1 | % | 32

----------
# Species on record: Homo sapiens
# Experiment: Selectivity for human adenosine A1 receptor over human adenosine A2A receptor
The following compounds are listed with their measured Ratio values.
Measurement Type: Ratio

Chemical Smiles | Measurement Type | Result Number
COCCOc1ccc(N2CCN(CCN(C)c3cc4nc(-c5ccco5)nn4c(N)n3)CC2)cc1 | Ratio | 694
Nc1nc(N(CCN2CCN(c3ccc(F)cc3F)CC2)CC2CC2)cc2nc(-c3ccco3)nn12 | Ratio | 831
CN(CCc1ccc(F)cc1)c1cc2nc(-c3ccco3)nn2c(N)n1 | Ratio | 248
CCN(CCN1CCN(c2ccc(F)cc2F)CC1)c1cc2nc(-c3ccco3)nn2c(N)n1 | Ratio | 312

----------
# Test system: Rattus norvegicus
# Experiment: Inhibition of haloperidol-induced catalepsy in rat at 3 mg/kg, po after 1 hr
# Format: functional
The following compounds are listed with their measured inhibition in vivo at 3 mg/kg values.

Chemical Smiles | inhibition in vivo at 3 mg/kg, %
COCCOc1ccc(N2CCN(CCN(CCOC)c3cc4nc(-c5ccco5)nn4c(N)n3)CC2)cc1 | 57
Nc1nc(N(CCN2CCN(c3ccc(F)cc3F)CC2)CC2CC2)cc2nc(-c3ccco3)nn12 | 65
CN(CCN1CCN(c2ccc(F)cc2F)CC1)c1cc2nc(-c3ccco3)nn2c(N)n1 | 75
Nc1nc(OCCN2CCN(c3ccc(F)cc3F)CC2)cc2nc(-c3ccco3)nn12 | 25
COCCOc1ccc(N2CCN(CCN(C)c3cc4nc(-c5cccc(C#N)c5)nn4c(N)n3)CC2)cc1 | 29
